target: EGFR kinase (Homo sapiens, UniProt P00533); construct: Recombinant intracellular fragments of EGFR and erbB2; made in house; host or cells: baculovirus/Sf21 insect cells; assay: Protein tyrosine kinase phosphorylation assay, Test (a): EGFR; assay type: biochemical; conditions: inhibition of phosphorylation of a tyrosine containing polypeptide substrate by EGFR kinase; ATP at Km
Sequence (P00533 669-1210 limits assumed): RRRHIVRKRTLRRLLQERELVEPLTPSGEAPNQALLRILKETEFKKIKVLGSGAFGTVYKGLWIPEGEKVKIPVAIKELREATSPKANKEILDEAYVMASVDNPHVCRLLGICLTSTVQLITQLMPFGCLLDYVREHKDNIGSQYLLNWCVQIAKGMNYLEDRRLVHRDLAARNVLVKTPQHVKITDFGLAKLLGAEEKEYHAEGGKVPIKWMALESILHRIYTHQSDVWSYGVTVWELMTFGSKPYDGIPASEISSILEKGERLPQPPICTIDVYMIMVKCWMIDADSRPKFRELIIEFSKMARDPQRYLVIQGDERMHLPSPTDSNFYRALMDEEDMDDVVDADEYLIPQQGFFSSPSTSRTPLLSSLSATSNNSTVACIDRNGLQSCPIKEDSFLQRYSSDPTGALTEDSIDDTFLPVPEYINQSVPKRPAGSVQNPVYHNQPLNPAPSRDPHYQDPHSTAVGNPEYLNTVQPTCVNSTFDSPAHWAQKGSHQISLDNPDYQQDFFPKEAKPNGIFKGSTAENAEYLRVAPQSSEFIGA
Counter-ions that a name gives are not always drawn.
Each entry below lists one item and its recorded log10 IC50 value.
Values are log10 of IC50 in µM.

In [3]: df
Out[3]:
                                   molecule  reported_measurement
0  C[C@H](CN(C)C)Oc1cccc2ncnc(Nc3ccc(Sc4nccn4C)c(Cl)c3)c12 [Example 53, dihydrochloride]                 -1.19
1  COc1cc(Nc2ncnc3cccc(OC(C)CN(C)C)c23)ccc1Oc1ccccc1 (centres unmarked) [Example 54]                  0.63
2  C[C@H](CN(C)C)Oc1cccc2ncnc(Nc3ccc(OCc4cscn4)c(Cl)c3)c12 [Example 23]                 -1.17
3  COc1cc(Nc2ncnc3cccc(OCCN(C)C)c23)ccc1OCc1cc(C)on1 [Example 37]                  0.92

Could you now look at the following molecule, please?
State the recorded log10 IC50 for this entry: CN(C)CC(C)(C)Oc1cccc2ncnc(Nc3ccc(OCc4ccccn4)c(Cl)c3)c12 [Example 56]
-0.31

* * *

Each entry below lists one item and its recorded IC50 value.
biological target: erbB2 (Homo sapiens, UniProt P04626); assay: Clone 24 phospho-erbB2 cell assay, Test (e); type: cell-based; parameters: a cell line that overexpresses full length wild type erbB2 protein; expressed in transfected cells; host or cells: MCF7 (breast carcinoma) derived Clone 24 cells; settings: inhibition of phosphorylation of erbB2 in a MCF7 (breast carcinoma) derived cell line (Clone 24)
Sequence (P04626 23-1255): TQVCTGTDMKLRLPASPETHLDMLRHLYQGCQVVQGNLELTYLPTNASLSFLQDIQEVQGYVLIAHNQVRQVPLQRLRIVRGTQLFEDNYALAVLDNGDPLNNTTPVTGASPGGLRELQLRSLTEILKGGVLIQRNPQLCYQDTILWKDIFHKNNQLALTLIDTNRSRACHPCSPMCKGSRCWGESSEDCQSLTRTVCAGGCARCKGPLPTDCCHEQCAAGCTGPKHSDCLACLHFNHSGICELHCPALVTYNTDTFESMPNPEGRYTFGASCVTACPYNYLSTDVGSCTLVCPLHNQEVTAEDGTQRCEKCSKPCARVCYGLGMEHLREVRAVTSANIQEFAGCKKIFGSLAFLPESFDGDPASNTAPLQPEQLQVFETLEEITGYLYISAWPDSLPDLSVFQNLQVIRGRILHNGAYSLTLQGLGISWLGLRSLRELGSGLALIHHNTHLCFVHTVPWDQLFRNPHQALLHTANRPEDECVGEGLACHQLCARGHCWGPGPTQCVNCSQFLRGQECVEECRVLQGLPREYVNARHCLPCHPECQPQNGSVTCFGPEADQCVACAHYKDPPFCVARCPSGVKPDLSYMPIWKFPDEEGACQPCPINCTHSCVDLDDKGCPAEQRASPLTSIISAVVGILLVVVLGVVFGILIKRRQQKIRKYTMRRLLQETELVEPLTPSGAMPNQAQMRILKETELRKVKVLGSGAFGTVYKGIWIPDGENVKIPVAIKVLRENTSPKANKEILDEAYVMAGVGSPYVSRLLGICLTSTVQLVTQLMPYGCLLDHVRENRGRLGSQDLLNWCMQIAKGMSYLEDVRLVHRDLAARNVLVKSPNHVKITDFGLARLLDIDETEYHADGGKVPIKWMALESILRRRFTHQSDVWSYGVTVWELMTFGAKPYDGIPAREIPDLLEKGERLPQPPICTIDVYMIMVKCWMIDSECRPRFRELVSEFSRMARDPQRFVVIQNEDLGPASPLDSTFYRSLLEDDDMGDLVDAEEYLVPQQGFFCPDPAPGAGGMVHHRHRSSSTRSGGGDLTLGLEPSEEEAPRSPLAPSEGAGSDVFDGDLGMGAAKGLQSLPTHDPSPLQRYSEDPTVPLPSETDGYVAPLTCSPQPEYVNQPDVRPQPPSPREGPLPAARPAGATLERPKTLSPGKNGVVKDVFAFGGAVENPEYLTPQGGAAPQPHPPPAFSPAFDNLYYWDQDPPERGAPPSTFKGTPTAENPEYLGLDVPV
Counter-ions that a name gives are not always drawn.
Give the quantity in µM, number only.

In [3]: df
Out[3]:
                                   compound                   experimental_target  property_name  reported_measurement
0  CN(C)CC(C)(C)Oc1cccc2ncnc(Nc3ccc(OCc4ccccn4)c(Cl)c3)c12  erbB2 (Homo sapiens, UniProt P04626)           IC50                 0.002
1  C[C@H](CN(C)C)Oc1cccc2ncnc(Nc3ccc(OCc4cscn4)c(Cl)c3)c12  erbB2 (Homo sapiens, UniProt P04626)           IC50                 0.001
2  COc1cc(Nc2ncnc3cccc(OCCN(C)C)c23)ccc1OCc1cc(C)on1  erbB2 (Homo sapiens, UniProt P04626)           IC50                 0.003
3  C[C@H](CN(C)C)Oc1cccc2ncnc(Nc3ccc(Sc4nccn4C)c(Cl)c3)c12 [Example 53, dihydrochloride]  erbB2 (Homo sapiens, UniProt P04626)           IC50                 0.001

State the recorded IC50 for this entry: COc1cc(Nc2ncnc3cccc(OC(C)CN(C)C)c23)ccc1Oc1ccccc1 (centres unmarked)
0.003

* * *

biological target: erbB2 (Homo sapiens); experiment: Protein tyrosine kinase phosphorylation assay, Test (a): erbB2; assay type: biochemical; parameters: Recombinant intracellular fragments of EGFR and erbB2; made in house; host or cells: baculovirus/Sf21 insect cells; conditions: inhibition of phosphorylation of a tyrosine containing polypeptide substrate by erbB2 kinase; ATP at Km
Sequence (P04626 676-1255 limits assumed): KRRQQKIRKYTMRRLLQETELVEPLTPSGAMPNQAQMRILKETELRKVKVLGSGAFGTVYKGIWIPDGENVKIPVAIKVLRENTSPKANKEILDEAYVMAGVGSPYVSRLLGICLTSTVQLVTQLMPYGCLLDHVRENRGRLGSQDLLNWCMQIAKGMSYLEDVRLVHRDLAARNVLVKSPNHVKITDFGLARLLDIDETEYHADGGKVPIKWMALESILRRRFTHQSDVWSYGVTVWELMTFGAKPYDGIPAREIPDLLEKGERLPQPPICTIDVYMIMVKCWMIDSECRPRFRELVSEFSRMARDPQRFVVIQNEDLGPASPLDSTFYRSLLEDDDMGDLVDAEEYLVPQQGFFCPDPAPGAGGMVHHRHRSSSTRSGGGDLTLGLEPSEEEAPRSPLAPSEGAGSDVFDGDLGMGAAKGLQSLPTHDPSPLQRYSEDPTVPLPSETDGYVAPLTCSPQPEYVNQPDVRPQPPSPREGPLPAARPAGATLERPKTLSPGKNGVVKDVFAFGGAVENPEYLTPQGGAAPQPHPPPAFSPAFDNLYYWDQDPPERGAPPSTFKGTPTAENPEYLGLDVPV
Where a name gives a salt, the structure may show the parent alone.
property name: IC50 (µM)
Give the quantity in µM, number only.

>>> print(df.to_string())
                                   molecule   experimental_target  reported_measurement
0  C[C@H](CN(C)C)Oc1cccc2ncnc(Nc3ccc(OCc4cscn4)c(Cl)c3)c12  erbB2 (Homo sapiens)                 0.002
1  C[C@H](CN(C)C)Oc1cccc2ncnc(Nc3ccc(Sc4nccn4C)c(Cl)c3)c12 [Example 53, dihydrochloride]  erbB2 (Homo sapiens)                 0.005
2  COc1cc(Nc2ncnc3cccc(OCCN(C)C)c23)ccc1OCc1cc(C)on1  erbB2 (Homo sapiens)                 0.017
3  COc1cc(Nc2ncnc3cccc(OC(C)CN(C)C)c23)ccc1Oc1ccccc1 (centres unmarked)  erbB2 (Homo sapiens)                 0.002

Could you now look at the following molecule, please?
State the recorded IC50 for this entry: `CN(C)CC(C)(C)Oc1cccc2ncnc(Nc3ccc(OCc4ccccn4)c(Cl)c3)c12`
0.002
